Reported EC50 by item:
Tested on: HEp-2
Assay: Cytotoxicity against human Hep2 cells after 72 hrs by SRB method
Type: functional
Settings: HEp-2, 72 h, read-out: ED50 (the source's name)

Sample records with EC50:
CCCCC[C@H]1CCCCCCCCCC(=O)O[C@H]2[C@H](O[C@H]3[C@H](O1)O[C@H](C)[C@H](O)[C@@H]3O)O[C@@H](C)[C@H](O[C@@H]1O[C@@H](C)[C@H](O[C@@H]3O[C@@H](C)[C@H](OC(=O)[C@@H](C)CC)[C@@H](O)[C@H]3O)[C@@H](O[C@@H]3O[C@H](CO)[C@@H](O)[C@H](O)[C@H]3O)[C@H]1OC(=O)[C@@H](C)CC)[C@H]2O [MURUCOIDIN IV]; 4 µg/mL
CCCCC[C@H]1CCCCCCCCCC(=O)O[C@H]2[C@H](O[C@H]3[C@H](O1)O[C@H](C)[C@H](O)[C@@H]3O)O[C@@H](C)[C@H](O[C@@H]1O[C@@H](C)[C@H](O[C@@H]3O[C@@H](C)[C@H](O)[C@@H](O)[C@H]3O)[C@@H](O[C@@H]3O[C@@H](C)[C@H](O)[C@@H](O)[C@H]3O)[C@H]1OC(=O)[C@@H](C)CC)[C@H]2O [MURUCOIDIN I]; > 20 µg/mL
CCCCC[C@H]1CCCCCCCCCC(=O)O[C@H]2[C@@H](O)[C@H](O[C@H]3[C@H](O1)O[C@H](C)[C@H](O)[C@@H]3O)O[C@@H](C)[C@@H]2O[C@@H]1O[C@@H](C)[C@H](O[C@@H]2O[C@@H](C)[C@H](OC(=O)[C@@H](C)CC)[C@@H](O)[C@H]2O)[C@@H](O[C@@H]2O[C@H](CO)[C@@H](O)[C@H](O)[C@H]2O)[C@H]1OC(=O)[C@@H](C)CC [MURUCOIDIN V]; > 20 µg/mL

Given item CCCCC[C@H]1CCCCCCCCCC(=O)O[C@H]2[C@@H](O)[C@H](O[C@H]3[C@H](O1)O[C@H](C)[C@H](O)[C@@H]3O)O[C@@H](C)[C@@H]2O[C@@H]1O[C@@H](C)[C@H](O[C@@H]2O[C@@H](C)[C@H](OC(=O)[C@@H](C)CC)[C@@H](O)[C@H]2O)[C@@H](O[C@@H]2O[C@@H](C)[C@H](O)[C@@H](O)[C@H]2O)[C@H]1OC(=O)[C@@H](C)CC [STOLONIFERIN I] , the value recorded as its EC50 is > 20 µg/mL

Lookup result for CC[C@]1(O)C[C@@H]2CN(CCc3c([nH]c4ccccc34)[C@@](C(=O)OC)(c3cc4c(cc3OC)N(C)[C@H]3[C@@](O)(C(=O)OC)[C@H](OC(C)=O)[C@]5(CC)C=CCN6CC[C@]43[C@@H]65)C2)C1 [VINBLASTINE] ; measured EC50: 0.001 µg/mL

Per the record, CCCCC[C@H]1CCCCCCCCCC(=O)O[C@H]2[C@H](O[C@H]3[C@H](O1)O[C@H](C)[C@H](O)[C@@H]3O)O[C@@H](C)[C@H](O[C@@H]1O[C@@H](C)[C@H](O[C@@H]3O[C@@H](C)[C@H](OC(=O)C(C)C)[C@@H](O)[C@H]3O)[C@@H](O[C@@H]3O[C@@H](C)[C@H](O)[C@@H](O)[C@H]3O)[C@H]1OC(=O)[C@@H](C)CC)[C@H]2O [MURUCOIDIN II] has EC50 of > 20 µg/mL

Reported EC50 ( CCCCC[C@H]1CCCCCCCCCC(=O)O[C@H]2[C@H](O[C@H]3[C@H](O1)O[C@H](C)[C@H](O)[C@@H]3O)O[C@@H](C)[C@H](O[C@@H]1O[C@@H](C)[C@H](O[C@@H]3O[C@@H](C)[C@H](OC(=O)[C@@H](C)CC)[C@@H](O)[C@H]3O)[C@@H](O[C@@H]3O[C@@H](C)[C@H](O)[C@@H](O)[C@H]3O)[C@H]1OC(=O)[C@@H](C)CC)[C@H]2O [MURUCOIDIN III] ) = > 20 µg/mL
